Target: recombinant human AKR1C3 (Homo sapiens, UniProt P42330)
Construct: GST (cleaved yes)
Assay: AKR1C3-inhibitory activity assay (generation of Coumberol from Coumberone)
Settings: Coumberone 0.3 μM, NADPH 10 μM, 22° C., typically 90 min, average or median values
Endpoint: IC50 (nM)

Below are worked cases with known answers.
C[C@@H]1CN(C(=O)c2cnn[nH]2)[C@@H](C)CN1S(=O)(=O)c1ccccc1Br | 1
Cc1cc(Cl)cc(S(=O)(=O)N2CCN(C(=O)c3cnn[nH]3)CC2(C)C)c1 | 2
C[C@@H]1CN(C(=O)c2cnn[nH]2)C[C@H](C)N1S(=O)(=O)c1cccc(Cl)c1 | 3

a = CC1(C)CN(C(=O)c2cnn[nH]2)CCN1S(=O)(=O)c1ccc(C#N)cc1
b = COc1cccc(S(=O)(=O)N2C[C@H](C)N(C(=O)c3cnn[nH]3)C[C@H]2C)c1
c = Cc1ccccc1S(=O)(=O)N1CCN(C(=O)c2cnn[nH]2)CC1(C)C
d = C[C@@H]1CN(S(=O)(=O)c2ccc(Br)cc2)C[C@H](C)N1C(=O)c1cnn[nH]1
e = C[C@@H]1CN(C(=O)c2c[nH]nn2)C[C@H](C)N1S(=O)(=O)c1ccccc1
Rank the 5 compounds: largest IC50 first, smallest last. Reply with the labels, ordered as the question asks.
a, d, e, c, b

P = C[C@@H]1CN(C(=O)c2cnn[nH]2)C[C@H](C)N1S(=O)(=O)c1cccc(F)c1
Q = C[C@@H]1CN(C(=O)c2cnn[nH]2)[C@@H](C)CN1S(=O)(=O)Cc1c(F)cccc1F
R = C[C@@H]1CN(C(=O)c2cnn[nH]2)[C@@H](C)CN1S(=O)(=O)Cc1ccccc1
S = COC(=O)c1cccc(S(=O)(=O)N2CCN(C(=O)c3cnn[nH]3)CC2(C)C)c1
Rank the 4 compounds: largest IC50 first, smallest last. Reply with the labels, ordered as the question asks.
S, R, Q, P
(S: 204 nM, R: 114 nM, Q: 79 nM, P: 9 nM)

1 = COc1ccc(S(=O)(=O)N2C[C@H](C)N(C(=O)c3cnn[nH]3)C[C@H]2C)cc1
2 = C[C@@H]1CN(C(=O)c2cnn[nH]2)[C@@H](C)CN1S(=O)(=O)c1ccccc1Cl
3 = C[C@@H]1CN(C(=O)c2cnn[nH]2)[C@@H](C)CN1S(=O)(=O)c1ccc(F)c(F)c1
Rank the 3 compounds: largest IC50 first, smallest last. Reply with the labels, ordered as the question asks.
1, 3, 2

I = C[C@@H]1CN(S(=O)(=O)c2cccc(F)c2)C[C@H](C)N1C(=O)c1c[nH]nn1
II = C[C@@H]1CN(S(=O)(=O)c2cc(C(F)(F)F)cc(C(F)(F)F)c2)C[C@H](C)N1C(=O)c1cnn[nH]1
III = C[C@@H]1CN(C(=O)c2cnn[nH]2)[C@@H](C)CN1S(=O)(=O)c1ccccc1C(F)(F)F
Rank the 3 compounds: largest IC50 first, smallest last. Reply with the labels, ordered as the question asks.
II, I, III
(II: 56 nM, I: 9 nM, III: 2 nM)

1 = CC1(C)CN(C(=O)c2cnn[nH]2)CCN1S(=O)(=O)c1c(Cl)cc(Cl)cc1Cl
2 = COc1cccc(S(=O)(=O)N2C[C@@H](C)N(C(=O)c3cnn[nH]3)[C@@H](C)C2)c1
# compare IC50 for 1 vs 2 ; return the one with the smaller value Choose, then provide that item's label.
1
(1: 12 nM, 2: 40 nM)

1 = C[C@@H]1CN(S(=O)(=O)c2cc(Cl)ccc2Cl)C[C@H](C)N1C(=O)c1c[nH]nn1
2 = CC1(C)CN(C(=O)c2c[nH]nn2)CCN1S(=O)(=O)c1ccccc1
3 = CC(=O)Nc1ccc(S(=O)(=O)N2C[C@H](C)N(C(=O)c3cnn[nH]3)C[C@H]2C)cc1
4 = COc1ccccc1S(=O)(=O)N1C[C@H](C)N(C(=O)c2cnn[nH]2)C[C@H]1C
5 = CC1(C)CN(C(=O)c2cnn[nH]2)CCN1S(=O)(=O)c1c(F)cccc1F
Exam item: list the entries in increasing order of IC50. Reply with the labels, ordered as the question asks.
1, 4, 2, 5, 3

a = C[C@@H]1CN(C(=O)c2c[nH]nn2)[C@@H](C)CN1S(=O)(=O)c1cc(F)ccc1F
b = Cc1cccc(S(=O)(=O)N2C[C@H](C)N(C(=O)c3cnn[nH]3)C[C@H]2C)c1
c = C[C@@H]1CN(C(=O)c2cnn[nH]2)C[C@H](C)N1S(=O)(=O)c1cc(F)cc(F)c1
Rank the 3 compounds: largest IC50 first, smallest last. Reply with the labels, ordered as the question asks.
c, a, b
(c: 9 nM, a: 2 nM, b: 1 nM)

I = C[C@@H]1CN(C(=O)c2cnn[nH]2)[C@@H](C)CN1S(=O)(=O)c1ccccc1
II = C[C@@H]1CN(S(=O)(=O)c2ccc(Cl)cc2)C[C@H](C)N1C(=O)c1cnn[nH]1
Quick check, higher IC50 between I and II ? Choose, then provide that item's label.
II
(II: 20 nM, I: 2 nM)

a = CC1(C)CN(C(=O)c2cnn[nH]2)CCN1S(=O)(=O)c1cc(F)ccc1Cl
b = C[C@@H]1CN(S(=O)(=O)c2ccccc2C#N)[C@@H](C)CN1C(=O)c1cnn[nH]1 (stereo in doubt)
# compare IC50 for a vs b ; return the one with the smaller value Choose, then provide that item's label.
a
(a: 5 nM, b: 439 nM)

###

Molecular target: recombinant human AKR1C3 (Homo sapiens)
Construct: GST (cleaved yes)
Assay: AKR1C3-inhibitory activity assay (generation of Coumberol from Coumberone)
Settings: Coumberone 0.3 μM, NADPH 10 μM, 22° C., typically 90 min, average or median values
Protocol: The AKR1C3-inhibitory activity of the substances of the present invention was measured in the AKR1C3 assay described in the paragraphs below. Essentially, the enzyme activity is measured by quantification of the generation of Coumberol from Coumberone (Halim et al. J. AM. CHEM. SOC. 2008, 130:14123-14128 and Yee et al. Proc. Natl. Acad. Sci. USA 2006, 103:13304-13309). […]
pIC50: −log10 of the molar value.
Endpoint: pIC50

Cc1ccc(C)c(S(=O)(=O)N2C[C@@H](C)N(C(=O)c3cnn[nH]3)[C@@H](C)C2)c1 [Example 99] | 8.52

1 = CC1(C)CN(C(=O)c2cnn[nH]2)CCN1S(=O)(=O)c1ccc(F)cc1 [Example 30]
2 = C[C@@H]1CN(C(=O)c2cnn[nH]2)[C@@H](C)CN1S(=O)(=O)c1ccc(F)c(Cl)c1 [Example 91]
3 = CC1(C)CN(C(=O)c2cnn[nH]2)CCN1S(=O)(=O)c1ccccc1Cl [Example 32]
Rank the 3 compounds: largest pIC50 first, smallest last. Reply with the labels, ordered as the question asks.
2, 3, 1
(2: 9.00, 3: 7.82, 1: 7.15)

###

Target: recombinant human AKR1C3 (Homo sapiens, UniProt P42330)
Construct: GST (cleaved yes)
Test: AKR1C3-inhibitory activity assay (generation of Coumberol from Coumberone)
Conditions: Coumberone 0.3 μM, NADPH 10 μM, 22° C., typically 90 min, average or median values
Endpoint: IC50 (nM)

CC1(C)CN(C(=O)c2cnn[nH]2)CCN1S(=O)(=O)c1cc(F)c(F)cc1F | 18

I = C[C@@H]1CN(C(=O)c2cnn[nH]2)[C@@H](C)CN1S(=O)(=O)c1cccc(OC(F)(F)F)c1
II = CC1(C)CN(C(=O)c2cnn[nH]2)CCN1S(=O)(=O)c1ccc(F)c(F)c1F
III = COc1ccc(S(=O)(=O)N2C[C@@H](C)N(C(=O)c3cnn[nH]3)[C@@H](C)C2)cc1
Rank the 3 molecules: largest IC50 first, smallest last. Reply with the labels, ordered as the question asks.
III, II, I

###

Molecular target: recombinant human AKR1C3 (Homo sapiens, UniProt P42330)
Construct: GST (cleaved yes)
Sequence (P42330 1-323): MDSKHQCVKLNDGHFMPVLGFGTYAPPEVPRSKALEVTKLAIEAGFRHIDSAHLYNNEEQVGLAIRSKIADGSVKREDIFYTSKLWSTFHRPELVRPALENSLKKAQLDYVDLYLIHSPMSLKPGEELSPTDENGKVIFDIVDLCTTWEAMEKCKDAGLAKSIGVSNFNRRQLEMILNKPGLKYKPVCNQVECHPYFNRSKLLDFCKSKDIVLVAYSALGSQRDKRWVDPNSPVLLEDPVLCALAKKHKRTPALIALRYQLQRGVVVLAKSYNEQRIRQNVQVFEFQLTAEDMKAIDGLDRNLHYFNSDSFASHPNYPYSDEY
Assay: AKR1C3-inhibitory activity assay (generation of Coumberol from Coumberone)
Conditions: Coumberone 0.3 μM, NADPH 10 μM, 22° C., typically 90 min, average or median values
Endpoint: IC50 (nM)

C[C@@H]1CN(S(=O)(=O)c2cccc(Cl)c2)C[C@H](C)N1C(=O)c1c[nH]nn1 [Example 48] | 3
COc1ccc(C#N)cc1S(=O)(=O)N1CCN(C(=O)c2cnn[nH]2)CC1(C)C [Example 139] | 285
Cc1ccc(C)c(S(=O)(=O)N2C[C@H](C)N(C(=O)c3cnn[nH]3)C[C@H]2C)c1 [Example 70] | 1
C[C@@H]1CN(C(=O)c2cnn[nH]2)[C@@H](C)CN1S(=O)(=O)c1cccc(Br)c1 [Example 78] | 1

I = Cc1ccccc1S(=O)(=O)N1C[C@@H](C)N(C(=O)c2c[nH]nn2)[C@@H](C)C1 [Example 45]
II = Cc1ccc(Cl)cc1S(=O)(=O)N1CCN(C(=O)c2cnn[nH]2)CC1(C)C [Example 129]
III = Cc1cc(C)c(S(=O)(=O)N2CCN(C(=O)c3cnn[nH]3)CC2(C)C)c(C)c1 [Example 113]
IV = COc1cc(C)ccc1S(=O)(=O)N1CCN(C(=O)c2cnn[nH]2)CC1(C)C [Example 133]
Rank the 4 compounds: largest IC50 first, smallest last. Reply with the labels, ordered as the question asks.
III, IV, II, I
(III: 39 nM, IV: 16 nM, II: 6 nM, I: 1 nM)
